The following compounds are listed with their measured Raw Signal values.
- target.of.assay: Human IP6K1 (Homo sapiens, UniProt Q92551)
- Construct: GST (N, cleaved yes); made in house; host or cells: C43 E. coli, pGEX-6P-2
- Sequence (Q92551 whole entry): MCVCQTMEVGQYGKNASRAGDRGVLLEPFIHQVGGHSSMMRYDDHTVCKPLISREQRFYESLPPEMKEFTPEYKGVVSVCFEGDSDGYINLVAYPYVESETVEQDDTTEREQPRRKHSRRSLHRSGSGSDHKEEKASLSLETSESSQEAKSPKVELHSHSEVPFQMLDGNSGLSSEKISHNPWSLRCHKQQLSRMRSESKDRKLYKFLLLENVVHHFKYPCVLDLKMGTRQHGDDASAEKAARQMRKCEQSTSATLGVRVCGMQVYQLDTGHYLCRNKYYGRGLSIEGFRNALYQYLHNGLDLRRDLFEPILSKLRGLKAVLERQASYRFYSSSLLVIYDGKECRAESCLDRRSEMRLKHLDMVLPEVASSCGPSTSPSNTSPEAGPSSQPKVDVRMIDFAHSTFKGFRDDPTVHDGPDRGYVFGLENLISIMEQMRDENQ
- experiment: IP6K1 high-throughput screen of the Sigma LOPAC (ADP-Glo Max, single point);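 note: final compound concentration 10µM in 5% DMSO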
- Type: biochemical
- test.conditions: LOPAC single-point screen, ADP-Glo Max raw signal per well
Returns: the value as a bare number; no unit string appended.

Worked cases, answers included:
compound | target.of.assay | data.value
O=C1N(c2ccccc2)c2ccccc2C1(Cc1ccncc1)Cc1ccncc1 | Human IP6K1 (Homo sapiens, UniProt Q92551) | 55241
O=S(=O)(c1cccc2c(Cl)cccc12)N1CCCNCC1 | Human IP6K1 (Homo sapiens, UniProt Q92551) | 57828
CC1=C(/C=C/C(C)=C/C=C/C(C)=C\C(=O)O)C(C)(C)CCC1 [13-cis-retinoic acid] | Human IP6K1 (Homo sapiens, UniProt Q92551) | 55954
Cl.NCCc1ccc(O)cc1 [4-Hydroxyphenethylamine hydrochloride] | Human IP6K1 (Homo sapiens, UniProt Q92551) | 54724
O=c1c(-c2ccc(O)cc2)coc2cc(O)cc(O)c12 | Human IP6K1 (Homo sapiens, UniProt Q92551) | 53223
C[N+](C)(C)CCC(=O)c1cccc2ccccc12.[I-] | Human IP6K1 (Homo sapiens, UniProt Q92551) | 55064

For Cc1ccc(/C(=C\CN2CCCC2)c2ccccn2)cc1.Cl [Triprolidine hydrochloride] the compound record lists Raw Signal as 57463

// Raw Signal lookup, compound = `CN(C)S(=O)(=O)c1ccc2c(c1)/C(=C/c1cc3c([nH]1)CCCC3)C(=O)N2` , result: 57564

For reference, reported Raw Signal for Cc1ccccc1N1C(=O)c2cc(S(N)(=O)=O)c(Cl)cc2NC1C (stereo not shown) stands at 54501

Lab note: measured Raw Signal of `Clc1cnc(Oc2ccc(Oc3ncc(Cl)cc3Cl)cc2)c(Cl)c1` was 54822

response.value for NS(=O)(=O)c1cc2c(cc1Cl)NCNS2(=O)=O [Hydrochlorothiazide] (field: Raw Signal) = 56632

The measured Raw Signal associated with `N#C/C(=C\c1ccc(O)c(O)c1)C(=O)NCc1ccccc1` reads 54184

According to the records, this compound CC(=O)OCC(=O)[C@@]1(O)CC[C@H]2[C@@H]3CCC4=CC(=O)CC[C@]4(C)[C@H]3C(=O)C[C@@]21C [Cortisone 21-acetate] displays Raw Signal of 59780

Measured Raw Signal of `Cn1cnc2c(NC3CCCC3)ncnc21` : 52967

# compound Br.CN1CCc2cc(O)c(O)cc2C(c2ccccc2)C1 (stereo not shown) [SKF 75670 hydrobromide] ; its Raw Signal = 56113

// field: Raw Signal; key: CN1C2CCC1CC(OC(=O)c1c[nH]c3ccccc13)C2.Cl (stereo not shown) ; value = 56078

Recorded Raw Signal (compound CC(=N)NCCCC[C@H](N)C(=O)O.Cl [L-N6-(1-Iminoethyl)lysine hydrochloride] ): 52153

get_value(item= `COc1cccc(C(=O)NCCN2CCN(c3ccc(Cl)cc3)CC2)c1` , readout=Raw Signal) returns 55564

Raw Signal measured on `Cc1nc2sccn2c(=O)c1CCN1CCC(=C(c2ccc(F)cc2)c2ccc(F)cc2)CC1` = 56847

Raw Signal recorded for this compound, `NCCNC(=O)Cc1ccc(NC(=O)Cc2ccc(Nc3ncnc4c3ncn4[C@@H]3O[C@H](CO)[C@@H](O)[C@H]3O)cc2)cc1` , is 58651

Reported Raw Signal of `CC(C)[C@H](CO)Nc1nc(Nc2cccc(Cl)c2)c2ncn(C(C)C)c2n1` : 54135

Input CC(C)C[C@H](NP(=O)([O-])O[C@H]1O[C@H](C)[C@@H](O)[C@H](O)[C@@H]1O)C(=O)N[C@@H](Cc1c[nH]c2ccccc12)C(=O)[O-].[Na+].[Na+] [Phosphoramidon disodium] . Output Raw Signal: 56521
